- System: NF-κ B
- protocol.notes: Inhibitory activity of NF-κ B activation, luciferase reporter assay in HepG2 under TNF-α stimulation
- Format: cell-based, human
- cond: 1 μg/mL; HepG2, TNF-α (40 ng/ml), 4 hours
endpoint: Inhibitory Ratio of NF-κ B Activation(%) Drug Concentration 1 μg/mL
Unit % implied. Number only.

The recorded Inhibitory Ratio of NF-κ B Activation(%) Drug Concentration 1 μg/mL for entry CC(=O)Oc1ccccc1C(=O)Nc1cc(Cl)cc(Cl)c1 equals 92.9

The recorded Inhibitory Ratio of NF-κ B Activation(%) Drug Concentration 1 μg/mL for entry COc1ccc(-c2ccccc2)cc1NC(=O)c1cc(Cl)ccc1O equals 82.4

The recorded Inhibitory Ratio of NF-κ B Activation(%) Drug Concentration 1 μg/mL for entry O=C(Nc1cc(F)cc(F)c1)c1cc(Br)ccc1O equals 91.8

The recorded Inhibitory Ratio of NF-κ B Activation(%) Drug Concentration 1 μg/mL for entry CON=C(C)c1ccc(O)c(C(=O)Nc2cc(C(F)(F)F)cc(C(F)(F)F)c2)c1 equals 94.7

The recorded Inhibitory Ratio of NF-κ B Activation(%) Drug Concentration 1 μg/mL for entry O=C(Nc1cc(C(F)(F)F)cc(C(F)(F)F)c1)c1cc(C(F)(F)F)ccc1O equals 96.4

----------
Hi there, I'd appreciate the recorded log10 IC50 for every entry that follows.
- Tested on: PGE2
- protocol.notes: Inhibition of PGE2 production by TNFα stimulation in synovial fibroblasts derived from a rheumatoid patient (EIA)
- Format: cell-based, human
- cond: Homo sapiens, Fibroblast; comparison compounds; synovial fibroblasts, TNFα stimulation; read-out: Inhibition against Mediator Release IC50(nM) PGE2
Reminder: these figures are log10 of reported IC50, in nM before transformation.

The recorded log10 IC50 for entry O=C(Nc1ccc(Cl)c(C(F)(F)F)c1)c1cc(Br)ccc1O [Reference Example 5, reference compound] equals 1.76

The recorded log10 IC50 for entry O=C(Nc1ccc(-c2ccccc2)cc1)c1cc(C(F)(F)F)ccc1O [reference compound] equals 2.47

The recorded log10 IC50 for entry O=C(Nc1ccc(Cl)c(Cl)c1)c1cc(Br)ccc1O [drawing 563, reference compound] equals 2.32

The recorded log10 IC50 for entry O=C(Nc1ccc(F)cc1F)c1cc(I)ccc1O [reference compound] equals 2.86

The recorded log10 IC50 for entry O=C(Nc1ccc(F)cc1F)c1cc([N+](=O)[O-])ccc1O [drawing 564, reference compound] equals 1.79

The recorded log10 IC50 for entry O=C(Nc1ccccc1C(F)(F)F)c1cc(Cl)ccc1O [Reference Example 2, reference compound] equals 2.83

The recorded log10 IC50 for entry O=C(Nc1cccc(C(F)(F)F)c1)c1cc(Br)ccc1O [Reference Example 4, reference compound] equals 2.62

----------
Hi there, I'd appreciate the recorded IC50 for every entry that follows.
- System: IL-6
- protocol.notes: Inhibition of IL-6 production by TNFα stimulation in synovial fibroblasts derived from a rheumatoid patient (ELISA)
- Assay type: cell-based, human
- cond: Homo sapiens, Fibroblast; comparison compounds; synovial fibroblasts, TNFα stimulation; read-out: Inhibition against Mediator Release IC50(nM) IL-6
Unit nM implied. Number only.

The recorded IC50 for entry CC(=O)c1ccc(NC(=O)c2cc(I)ccc2O)cc1 [reference compound] equals 82

The recorded IC50 for entry O=C(Nc1ccc(C(F)(F)F)cc1C(F)(F)F)c1cc(Cl)ccc1O [Reference Example 1, reference compound] equals 202

The recorded IC50 for entry O=C(Nc1ccc(Cl)c(C(F)(F)F)c1)c1cc(Br)ccc1O [Reference Example 5, reference compound] equals 91

The recorded IC50 for entry O=C(Nc1cccc(C(F)(F)F)c1)c1cc(Br)ccc1O [Reference Example 4, reference compound] equals 690

The recorded IC50 for entry O=C(Nc1ccccc1C(F)(F)F)c1cc(Cl)ccc1O [Reference Example 2, reference compound] equals 887

The recorded IC50 for entry O=C(Nc1ccc(F)cc1F)c1cc(I)ccc1O [reference compound] equals 85

The recorded IC50 for entry O=C(Nc1ccc(-c2ccccc2)cc1)c1cc(C(F)(F)F)ccc1O [reference compound] equals 140

The recorded IC50 for entry O=C(Nc1ccc(F)cc1F)c1cc([N+](=O)[O-])ccc1O [drawing 564, reference compound] equals 248

The recorded IC50 for entry O=C(Nc1ccc(Cl)c(Cl)c1)c1cc(Br)ccc1O [drawing 563, reference compound] equals 205

----------
- System: NF-κ B
- protocol.notes: Inhibitory activity of NF-κ B activation, luciferase reporter assay in HepG2 under TNF-α stimulation
- Assay type: cell-based, human
- cond: 10 μg/mL; HepG2, TNF-α (40 ng/ml), 4 hours
endpoint: Inhibitory Ratio of NF-κ B Activation(%) Drug Concentration 10 μg/mL
Unit % implied. Number only.

The compound CN(C)S(=O)(=O)c1ccc(O)c(C(=O)Nc2cc(C(F)(F)F)cc(C(F)(F)F)c2)c1 [Compound No. 41] , when measured on NF-κ B, yielded Inhibitory Ratio of NF-κ B Activation(%) Drug Concentration 10 μg/mL of 95.9

The compound O=C(Nc1nc(-c2ccccc2)cs1)c1cc(Br)ccc1O [Compound No. 208] , when measured on NF-κ B, yielded Inhibitory Ratio of NF-κ B Activation(%) Drug Concentration 10 μg/mL of 78.8

The compound COc1ccc(C(C)(C)C)cc1NC(=O)c1cc(C)ccc1O [Compound No. 149] , when measured on NF-κ B, yielded Inhibitory Ratio of NF-κ B Activation(%) Drug Concentration 10 μg/mL of 87.1

The compound COc1ccc(C)c(NC(=O)c2cc(Cl)ccc2O)c1 [Compound No. 160] , when measured on NF-κ B, yielded Inhibitory Ratio of NF-κ B Activation(%) Drug Concentration 10 μg/mL of 96.5

The compound COc1ccc(Oc2ccccc2)cc1NC(=O)c1cc(Cl)ccc1O [Compound No. 171] , when measured on NF-κ B, yielded Inhibitory Ratio of NF-κ B Activation(%) Drug Concentration 10 μg/mL of 98.1

The compound N#CC(=Cc1ccc(O)c(C(=O)Nc2cc(C(F)(F)F)cc(C(F)(F)F)c2)c1)C(=O)O [Compound No. 18] , when measured on NF-κ B, yielded Inhibitory Ratio of NF-κ B Activation(%) Drug Concentration 10 μg/mL of 98.5

The compound O=C(Nc1nc(-c2ccccc2)c(-c2ccccc2)s1)c1cc(Br)ccc1O [Compound No. 211] , when measured on NF-κ B, yielded Inhibitory Ratio of NF-κ B Activation(%) Drug Concentration 10 μg/mL of 67.0

The compound O=C(Nc1cccc(Br)n1)c1cc(Cl)ccc1O [Compound No. 243] , when measured on NF-κ B, yielded Inhibitory Ratio of NF-κ B Activation(%) Drug Concentration 10 μg/mL of 95.1

The compound CC(=O)Oc1ccccc1C(=O)Nc1cc(Cl)cc(Cl)c1 [Compound No. 121] , when measured on NF-κ B, yielded Inhibitory Ratio of NF-κ B Activation(%) Drug Concentration 10 μg/mL of 95.5

----------
- System: NF-κ B
- protocol.notes: Inhibitory activity of NF-κ B activation, luciferase reporter assay in HepG2 under TNF-α stimulation
- Type: cell-based, human
- cond: 1 μg/mL; HepG2, TNF-α (40 ng/ml), 4 hours
endpoint: Inhibitory Ratio of NF-κ B Activation(%) Drug Concentration 1 μg/mL
Unit % implied. Number only.

The recorded Inhibitory Ratio of NF-κ B Activation(%) Drug Concentration 1 μg/mL for entry COc1cc(Cl)nc(NC(=O)c2cc(Cl)ccc2O)n1 equals 25.5

The recorded Inhibitory Ratio of NF-κ B Activation(%) Drug Concentration 1 μg/mL for entry O=C(Nc1cc(C(F)(F)F)cc(C(F)(F)F)c1)c1cc(Cl)ccc1O equals 46.3

The recorded Inhibitory Ratio of NF-κ B Activation(%) Drug Concentration 1 μg/mL for entry CCCCOc1ccc(OCCCC)c(NC(=O)c2cc(Cl)ccc2O)c1 equals 94.2

The recorded Inhibitory Ratio of NF-κ B Activation(%) Drug Concentration 1 μg/mL for entry Cc1ccc(Oc2ccc(C(F)(F)F)cc2NC(=O)c2cc(Cl)ccc2O)cc1 equals 92.8

The recorded Inhibitory Ratio of NF-κ B Activation(%) Drug Concentration 1 μg/mL for entry COc1ccc(O)c(C(=O)Nc2cc(C(F)(F)F)ccc2Cl)c1 equals 17.7

The recorded Inhibitory Ratio of NF-κ B Activation(%) Drug Concentration 1 μg/mL for entry O=C(Nc1cccc(Br)n1)c1cc(Cl)ccc1O equals 84.2

The recorded Inhibitory Ratio of NF-κ B Activation(%) Drug Concentration 1 μg/mL for entry O=C(Nc1cc(C(F)(F)F)cc(C(F)(F)F)c1)c1ccccc1O equals 93.3

The recorded Inhibitory Ratio of NF-κ B Activation(%) Drug Concentration 1 μg/mL for entry O=C(Nc1cc(F)cc(F)c1)c1cc(Cl)ccc1O equals 90.7

The recorded Inhibitory Ratio of NF-κ B Activation(%) Drug Concentration 1 μg/mL for entry CCOC(=O)c1sc(NC(=O)c2cc(-c3ccc(F)cc3)ccc2O)nc1-c1ccccc1 equals 45.0

The recorded Inhibitory Ratio of NF-κ B Activation(%) Drug Concentration 1 μg/mL for entry O=C(Nc1cc(C(F)(F)F)cc(C(F)(F)F)c1)c1c(O)cccc1O equals 96.4

The recorded Inhibitory Ratio of NF-κ B Activation(%) Drug Concentration 1 μg/mL for entry O=C(Nc1cc(C(F)(F)F)cc(C(F)(F)F)c1)c1cc(Cl)cc(Cl)c1O equals 89.4

The recorded Inhibitory Ratio of NF-κ B Activation(%) Drug Concentration 1 μg/mL for entry N#CC(=Cc1ccc(O)c(C(=O)Nc2cc(C(F)(F)F)cc(C(F)(F)F)c2)c1)C(=O)O equals 59.7

The recorded Inhibitory Ratio of NF-κ B Activation(%) Drug Concentration 1 μg/mL for entry CC(=O)Oc1ccc(Cl)cc1C(=O)Nc1cc(C(F)(F)F)ccc1Cl equals 96.7

The recorded Inhibitory Ratio of NF-κ B Activation(%) Drug Concentration 1 μg/mL for entry Cc1ccc(C)c(NC(=O)c2cc(Cl)ccc2O)c1 equals 88.3

The recorded Inhibitory Ratio of NF-κ B Activation(%) Drug Concentration 1 μg/mL for entry O=C(Nc1cc(C(F)(F)F)cc(C(F)(F)F)c1)c1ccc(O)cc1O equals 10.8

The recorded Inhibitory Ratio of NF-κ B Activation(%) Drug Concentration 1 μg/mL for entry O=C(Nc1cc(C(F)(F)F)cc(C(F)(F)F)c1)c1ccc(Cl)cc1O equals 90.5

The recorded Inhibitory Ratio of NF-κ B Activation(%) Drug Concentration 1 μg/mL for entry O=C(Nc1cc(C(F)(F)F)cc(C(F)(F)F)c1)c1c(O)cccc1F equals 85.4

Where these numbers come from: patent US20060089395A1
